All figures here come from patent US20260373248A1.

List of PDI values.
experiment: Delivery vehicle size and polydispersity by dynamic light scattering; format: physicochemical; details: DLS in PBS; peptoid:DSPC:Cholesterol:DMG-PEG2000 weight ratio 20:1.79:7.16:1.84, mRNA
Non-standard residues stand in square brackets, D forms with d. Residues, ends and D or L forms follow the SMILES beside them. *: point of attachment. Gly(N-(3-decanoyloxypropyl)) = CCCCCCCCCC(=O)OCCCNCC(=O)O; N(3-lauroyloxypropyl)Gly = CCCCCCCCCCCC(=O)OCCCNCC(=O)O; N(2-decanoyloxyethyl)Gly = CCCCCCCCCC(=O)OCCNCC(=O)O; Gly(N-(CH2)3O-octanoyl) = CCCCCCCC(=O)OCCCNCC(=O)O; N(3-imidazol-1-ylpropyl)Gly = O=C(O)CNCCCn1ccnc1; Gly(N-3-morpholinopropyl) = O=C(O)CNCCCN1CCOCC1; N(2-ethylhexyl)Gly = CCCCC(CC)CNCC(=O)O; Gly(N-dodecyl) = CCCCCCCCCCCCNCC(=O)O; N(CH(CH2OH)2)Gly = O=C(O)CNC(CO)CO; NDecylGly = CCCCCCCCCCNCC(=O)O; NHexGly = CCCCCCNCC(=O)O; For = O=C*
Just the number, please, no unit attached.

Solved cases (3 shown):
Lookup: Quote PDI reported for CCCCCCCCCC(=O)OCCN(CC(N)=O)C(=O)CN(CCOC(=O)CCCCCCCCC)C(=O)CN(CC(CC)CCCC)C(=O)CN(CCOC(=O)CCCCCCCCC)C(=O)CN(CCOC(=O)CCCCCCCCC)C(=O)CN(CC(CC)CCCC)C(=O)CNC(CO)CO (stereo not drawn) [Compound 105] (H-[N(CH(CH2OH)2)Gly][N(2-ethylhexyl)Gly][N(2-decanoyloxyethyl)Gly][N(2-decanoyloxyethyl)Gly][N(2-ethylhexyl)Gly][N(2-decanoyloxyethyl)Gly][N(2-decanoyloxyethyl)Gly]-NH2) please.
Found: 0.150

Lookup: Quote PDI reported for CCCCCCCCCCCC(=O)OCCCN(CC(=O)N(CC(=O)N(CC(=O)N(CCCOC(=O)CCCCCCCCCCC)CC(=O)N(CC(N)=O)CC(CC)CCCC)CC(CC)CCCC)CC(CC)CCCC)C(=O)CN(CC(CC)CCCC)C(=O)CN(C=O)CCCN1CCOCC1 (stereo not drawn) [Compound 64] (For-[Gly(N-3-morpholinopropyl)][N(2-ethylhexyl)Gly][N(3-lauroyloxypropyl)Gly][N(2-ethylhexyl)Gly][N(2-ethylhexyl)Gly][N(3-lauroyloxypropyl)Gly][N(2-ethylhexyl)Gly]-NH2) please.
Found: 0.096

Lookup: Quote PDI reported for CCCCCCCCCCCCN(C=O)CC(=O)N(CCCOC(=O)CCCCCCCCC)CC(=O)N(CC(=O)N(CCCN1CCOCC1)CC(=O)N(CC(=O)N(CCCOC(=O)CCCCCCCCC)CC(=O)N(CCCCCCCCCCCC)CC(N)=O)CC(CC)CCCC)CC(CC)CCCC (stereo not drawn) [Compound 88] (For-[Gly(N-dodecyl)][Gly(N-(3-decanoyloxypropyl))][N(2-ethylhexyl)Gly][Gly(N-3-morpholinopropyl)][N(2-ethylhexyl)Gly][Gly(N-(3-decanoyloxypropyl))][Gly(N-dodecyl)]-NH2) please.
Found: 0.118

Others:
Lookup: Quote PDI reported for CCCCCCCCCCN(C=O)CC(=O)N(CCCOC(=O)CCCCCCC)CC(=O)N(CC(=O)N(CCCn1ccnc1)CC(=O)N(CC(=O)N(CCCOC(=O)CCCCCCC)CC(=O)N(CCCCCCCCCC)CC(N)=O)CC(CC)CCCC)CC(CC)CCCC (stereo not drawn) [Compound 114] (For-[NDecylGly][Gly(N-(CH2)3O-octanoyl)][N(2-ethylhexyl)Gly][N(3-imidazol-1-ylpropyl)Gly][N(2-ethylhexyl)Gly][Gly(N-(CH2)3O-octanoyl)][NDecylGly]-NH2) please.
Found: 0.245

Lookup: Quote PDI reported for CCCCCCCCCC(=O)OCCCN(CC(=O)N(CCCOC(=O)CCCCCCCCC)CC(=O)N(CCCCCC)CC(=O)N(CCCOC(=O)CCCCCCCCC)CC(=O)N(CCCOC(=O)CCCCCCCCC)CC(=O)N(CCCCCC)CC(N)=O)C(=O)CNCCCn1ccnc1 [Compound 109] (H-[N(3-imidazol-1-ylpropyl)Gly][Gly(N-(3-decanoyloxypropyl))][Gly(N-(3-decanoyloxypropyl))][NHexGly][Gly(N-(3-decanoyloxypropyl))][Gly(N-(3-decanoyloxypropyl))][NHexGly]-NH2) please.
Found: 0.173
